assay.target: T1, mouse KDR (Flk-1)/Fc (Cat. #443-KD/CF, R&D Systems, Inc.) (mouse, UniProt P35918 20-762)
T1 construct: Bought reagent; also called mouse VEGFR2; KDR mouse ortholog; not shown: Fc of the bought fusion protein
T1 sequence (P35918 20-762 limits assumed): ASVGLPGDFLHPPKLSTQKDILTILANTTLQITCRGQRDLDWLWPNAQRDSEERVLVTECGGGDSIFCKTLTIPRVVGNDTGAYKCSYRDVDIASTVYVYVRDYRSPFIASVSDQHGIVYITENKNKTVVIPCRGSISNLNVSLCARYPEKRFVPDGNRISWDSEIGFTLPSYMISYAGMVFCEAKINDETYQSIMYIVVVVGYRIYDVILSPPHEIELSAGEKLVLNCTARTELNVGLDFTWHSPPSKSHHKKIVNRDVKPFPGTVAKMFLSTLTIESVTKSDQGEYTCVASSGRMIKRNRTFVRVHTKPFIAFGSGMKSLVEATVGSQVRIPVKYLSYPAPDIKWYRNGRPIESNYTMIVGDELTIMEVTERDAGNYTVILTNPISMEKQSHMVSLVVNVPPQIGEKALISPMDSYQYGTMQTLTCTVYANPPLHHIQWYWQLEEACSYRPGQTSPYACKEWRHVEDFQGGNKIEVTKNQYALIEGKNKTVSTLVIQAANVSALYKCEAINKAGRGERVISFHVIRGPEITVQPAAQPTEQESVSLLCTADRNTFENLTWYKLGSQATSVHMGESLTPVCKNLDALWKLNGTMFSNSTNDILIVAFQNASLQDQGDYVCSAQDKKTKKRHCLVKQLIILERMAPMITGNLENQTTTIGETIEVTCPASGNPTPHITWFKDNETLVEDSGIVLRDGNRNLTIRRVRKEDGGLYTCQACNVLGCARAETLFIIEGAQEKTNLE
assay.remarks: ELISA, Flk-1 coat 5 ug/mL, antibody 0.01 ug/mL
endpoint: ELISA reading

[
  {
    "binder": "22B8 (antibody, V domains shown, Fully human monoclonal antibody from a XenoMouse hybridoma (IgG2 or IgG4 strain), purified) VH: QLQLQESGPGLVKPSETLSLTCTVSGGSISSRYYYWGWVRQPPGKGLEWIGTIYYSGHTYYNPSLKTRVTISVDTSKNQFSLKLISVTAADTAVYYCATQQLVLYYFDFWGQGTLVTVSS VL: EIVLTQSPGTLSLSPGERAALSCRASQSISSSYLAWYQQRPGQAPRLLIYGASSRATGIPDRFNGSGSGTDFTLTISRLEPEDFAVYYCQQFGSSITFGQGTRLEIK",
    "endpoint": "ELISA reading",
    "endpoint.result": 1.2
  }
]

Hey, just so you know, these numbers are from patent US20100260765A1.
